Each entry below carries its reported IC50.
# Test system: Human immunodeficiency virus 1
# Procedure summary: Antiviral activity against X4 tropic HIV-1 clone pNL4-3 infected in H9 cells assessed as reduction in p24 antigen after 4 days by ELISA
# Format: functional, organism-based
# Condition summary: Human immunodeficiency virus 1, pNL4-3, H9, 96 h

# count of solved cases: 3
Cc1ccc(/C=C(\C#N)c2nc3ccccc3[nH]2)cc1; > 50 µM
N#C/C(=C\c1ccc(N2CCCC2)cc1)c1nc2ccccc2[nH]1; > 50 µM
CCN(CC)c1ccc(/C=C(\C#N)c2nc3ccccc3[nH]2)c(O)c1; 1.5 µM

// query Quick one: IC50 for `N#C/C(=C\c1ccc2[nH]ncc2c1)c1nc2ccccc2[nH]1` ?
// result 0.36 µM

// query Quick one: IC50 for `N#C/C(=C\c1ccc(-n2ccnc2)cc1)c1nc2ccccc2[nH]1` ?
// result > 50 µM

// query Quick one: IC50 for `CCN(CCO)c1ccc(/C=C(\C#N)c2nc3ccccc3[nH]2)cc1` ?
// result 6.11 µM

====

# Test system: Human immunodeficiency virus 1
# Procedure summary: Antiviral activity against X4 tropic HIV-1 clone pNL4-3 infected in H9 cells assessed as reduction in p24 antigen after 4 days by ELISA
# Format: functional, organism-based
# Condition summary: Human immunodeficiency virus 1, pNL4-3, H9, 96 h
Reported metric: IC50

# count of solved cases: 6
CCN(CC)c1ccc(CC(C#N)c2nc3ccccc3[nH]2)cc1 (stereo unspecified); > 50 µM
CCN(CC)c1ccc(/C=C(\C#N)c2nc3cc(Br)ccc3[nH]2)cc1; > 50 µM
CCN(CC)c1ccc(/C=C(\C#N)c2nc3ccccc3o2)cc1; 2.38 µM
CC(=O)Nc1ccc(/C=C(\C#N)c2nc3ccccc3[nH]2)cc1; > 50 µM
COc1cc(OC)c(OC)cc1/C=C(\C#N)c1nc2ccccc2[nH]1; > 50 µM
CN1CCN(c2ccc(/C=C(\C#N)c3nc4ccccc4[nH]3)cc2)CC1; > 50 µM

// query Quick one: IC50 for `CCN(CC)c1ccc(/C=C(\C#N)c2nc3ccccc3s2)cc1` ?
// result 5.92 µM

// query Quick one: IC50 for `CC(C)N(c1ccc(/C=C(\C#N)c2nc3ccccc3[nH]2)cc1)C(C)C` ?
// result 3.3 µM

// query Quick one: IC50 for `CCN(CC)c1ccc(/C=C(\C#N)c2nc3cc(F)ccc3[nH]2)cc1` ?
// result > 50 µM

// query Quick one: IC50 for `N#C/C(=C\c1ccc(N2CCOCC2)cc1)c1nc2ccccc2[nH]1` ?
// result > 50 µM

// query Quick one: IC50 for `COc1cc(/C=C(\C#N)c2nc3ccccc3[nH]2)ccc1N(C)C` ?
// result 0.29 µM

====

Each entry below carries its reported pIC50.
# Test system: Human immunodeficiency virus 1
# Procedure summary: Antiviral activity against X4 tropic HIV-1 clone pNL4-3 infected in H9 cells assessed as reduction in p24 antigen after 4 days by ELISA
# Assay type: functional, organism-based
# Condition summary: Human immunodeficiency virus 1, pNL4-3, H9, 96 h
Please note pIC50 is a logarithmic value: minus log10 of concentration in mol/L. Answer with that number alone.

N#C/C(=C\c1ccc2[nH]ccc2c1)c1nc2ccccc2[nH]1; 6.14
CCN(CC)c1ccc(/C=C(\C#N)c2nc3ccncc3[nH]2)cc1; 5.14
CCN(CC)c1ccc(/C=C(\C#N)c2nc3cc(OC(F)(F)F)ccc3[nH]2)cc1; 5.87

Field: next molecule
// query Quick one: pIC50 for `CCN(CC)c1ccc(/C=C(\C#N)c2nc3cc(N(C)C)ccc3[nH]2)cc1` ?
// result 5.57
